All values here come from paper PMC10663500.

- target-system: T1, human programmed cell death protein 1 (hPD-1) C93S (aa 24-167) (Homo sapiens, UniProt Q15116, C93S)
- T1 construct: made as a fusion with a TEV site and human Fc; the Fc was cut off with TEV protease; source: Expi293F, purified (Protein A, TEV cleavage of Fc, SEC; monomer fractions); not shown: Fc (human), C-terminal, cleaved
- T1 sequence (Q15116 24-167 C93S): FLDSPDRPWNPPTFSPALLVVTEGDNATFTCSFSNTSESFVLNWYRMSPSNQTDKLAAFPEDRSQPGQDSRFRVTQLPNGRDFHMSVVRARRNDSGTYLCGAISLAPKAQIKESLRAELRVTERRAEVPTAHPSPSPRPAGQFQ
- procedure-details: SPR; Carterra LSA; Fab from the ammonium sulfate precipitate of the culture supernatant immobilised on a NiHC200M chip; hPD-1 (1-1024 nM) or mPD-1-Fc (4-1024 nM) as analyte, fourfold dilution series, no regeneration; HBS-EP pH 7.4, 25 °C; medians over the spots of a construct, KD = koff/kon
- test-conditions: one partner purified
parameter-measured: pKd
Remember the convention: pKd equals -log10 of concentration in molar.

stdin: Report pKd for toripalimab Fab H.I51Y (Fab, V domains shown, heavy chain of Sm3 with this change; numbers count from the chain's first residue; as the light chain of Sm3; source: Brevibacillus, culture supernatant (ammonium sulfate precipitate); not shown: 6xHis, C-terminal, kept; 6xHN, C-terminal, kept) VH: QGQLVQSGAEVKKPGASVKVSCKASGYTFTDYEMHWVRQAPIHGLEWIGVYESETGGTAYNQKFKGRVTITADKSTSTAYMELSSLRSEDTAVYYCAREGITTVATTYYWYFDVWGQGTTVTVSS VL: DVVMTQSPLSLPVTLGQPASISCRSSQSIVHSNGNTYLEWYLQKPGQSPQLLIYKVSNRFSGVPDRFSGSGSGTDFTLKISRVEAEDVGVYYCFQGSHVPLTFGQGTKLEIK
stdout: 8.10

stdin: Report pKd for toripalimab Fab L.K55Y (Fab, V domains shown, as the heavy chain of Sm3; light chain of Sm3 with this change; numbers count from the chain's first residue; source: Brevibacillus, culture supernatant (ammonium sulfate precipitate); not shown: 6xHis, C-terminal, kept; 6xHN, C-terminal, kept) VH: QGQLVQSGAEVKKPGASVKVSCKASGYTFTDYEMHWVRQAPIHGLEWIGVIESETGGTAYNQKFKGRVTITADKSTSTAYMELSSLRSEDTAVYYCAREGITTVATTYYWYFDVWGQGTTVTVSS VL: DVVMTQSPLSLPVTLGQPASISCRSSQSIVHSNGNTYLEWYLQKPGQSPQLLIYYVSNRFSGVPDRFSGSGSGTDFTLKISRVEAEDVGVYYCFQGSHVPLTFGQGTKLEIK
stdout: 8.85

stdin: Report pKd for toripalimab Fab H.Y108A (Fab, V domains shown, heavy chain of Sm3 with this change; numbers count from the chain's first residue; as the light chain of Sm3; source: Brevibacillus, culture supernatant (ammonium sulfate precipitate); not shown: 6xHis, C-terminal, kept; 6xHN, C-terminal, kept) VH: QGQLVQSGAEVKKPGASVKVSCKASGYTFTDYEMHWVRQAPIHGLEWIGVIESETGGTAYNQKFKGRVTITADKSTSTAYMELSSLRSEDTAVYYCAREGITTVATTAYWYFDVWGQGTTVTVSS VL: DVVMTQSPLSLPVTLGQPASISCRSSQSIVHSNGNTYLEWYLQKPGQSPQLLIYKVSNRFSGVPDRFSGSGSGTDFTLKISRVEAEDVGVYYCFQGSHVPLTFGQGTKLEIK
stdout: 7.31
